targetOrTestSystem: Multidrug resistance-associated protein 1 (Homo sapiens, UniProt P33527)
Sequence (P33527 whole entry): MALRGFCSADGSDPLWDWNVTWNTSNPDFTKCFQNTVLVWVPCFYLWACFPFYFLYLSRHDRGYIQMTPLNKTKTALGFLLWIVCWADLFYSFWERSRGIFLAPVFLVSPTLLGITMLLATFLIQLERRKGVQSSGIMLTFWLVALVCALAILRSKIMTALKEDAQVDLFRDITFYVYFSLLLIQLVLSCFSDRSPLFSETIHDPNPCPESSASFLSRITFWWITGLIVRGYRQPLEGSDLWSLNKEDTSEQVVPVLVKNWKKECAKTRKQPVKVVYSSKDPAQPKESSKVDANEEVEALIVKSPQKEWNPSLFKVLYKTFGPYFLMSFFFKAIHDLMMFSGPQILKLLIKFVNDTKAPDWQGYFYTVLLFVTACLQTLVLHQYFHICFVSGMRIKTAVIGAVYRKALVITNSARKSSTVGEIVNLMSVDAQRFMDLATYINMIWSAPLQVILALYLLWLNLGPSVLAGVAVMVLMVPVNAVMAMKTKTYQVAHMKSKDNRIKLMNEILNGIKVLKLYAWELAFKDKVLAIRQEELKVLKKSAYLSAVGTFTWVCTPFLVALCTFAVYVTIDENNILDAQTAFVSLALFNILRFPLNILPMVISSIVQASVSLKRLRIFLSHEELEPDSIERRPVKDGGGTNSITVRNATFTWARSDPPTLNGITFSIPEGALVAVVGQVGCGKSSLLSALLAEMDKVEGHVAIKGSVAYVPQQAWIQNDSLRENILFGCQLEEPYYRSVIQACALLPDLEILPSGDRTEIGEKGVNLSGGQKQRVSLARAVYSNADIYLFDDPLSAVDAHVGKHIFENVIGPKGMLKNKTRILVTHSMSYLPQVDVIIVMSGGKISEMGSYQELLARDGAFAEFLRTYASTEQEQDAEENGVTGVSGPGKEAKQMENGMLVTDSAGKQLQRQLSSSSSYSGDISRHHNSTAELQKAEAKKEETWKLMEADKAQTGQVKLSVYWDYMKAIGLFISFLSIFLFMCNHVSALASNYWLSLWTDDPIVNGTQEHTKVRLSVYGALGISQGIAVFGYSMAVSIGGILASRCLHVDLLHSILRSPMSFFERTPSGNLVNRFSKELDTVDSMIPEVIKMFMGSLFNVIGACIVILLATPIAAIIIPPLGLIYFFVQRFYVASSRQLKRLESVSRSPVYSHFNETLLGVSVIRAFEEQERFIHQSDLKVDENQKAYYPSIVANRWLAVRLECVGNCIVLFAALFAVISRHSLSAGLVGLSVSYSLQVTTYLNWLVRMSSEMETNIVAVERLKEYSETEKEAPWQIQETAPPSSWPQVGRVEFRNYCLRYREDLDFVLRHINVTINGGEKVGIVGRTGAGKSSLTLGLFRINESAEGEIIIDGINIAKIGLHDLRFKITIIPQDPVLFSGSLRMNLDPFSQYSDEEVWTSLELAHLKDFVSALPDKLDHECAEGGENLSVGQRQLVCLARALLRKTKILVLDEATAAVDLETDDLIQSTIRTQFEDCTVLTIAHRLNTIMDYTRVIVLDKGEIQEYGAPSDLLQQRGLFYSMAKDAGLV
assayNotes: Inhibition of MRP1 in human 2008/MRP1 cells assessed as potentiation of doxorubicin-induced cytotoxicity by measuring cell survival at 1 uM after 5 days by MTS assay relative to control
Assay type: cell-based
experimentalParameters: 120 h
Task for the reader: assign each of the following compounds its reported Survival.
Record the value in %, omitting the unit from your answer.

Exam item: Check the records and state Survival for `O=c1cc(-c2ccc(OCCCc3cn(CCOCCOCCOc4ccc5c(=O)cc(-c6ccccc6)oc5c4)nn3)cc2)oc2ccccc12`
Marked response: 54

Exam item: Check the records and state Survival for `O=c1cc(-c2ccccc2)oc2cc(OCCCCc3cn(CCOCCOCCOc4ccc(-c5cc(=O)c6cc(F)ccc6o5)cc4)nn3)ccc12`
Marked response: 59

Exam item: Check the records and state Survival for `O=c1cc(-c2ccccc2)oc2cc(OCCN(Cc3ccccc3)Cc3cn(CCOCCOc4ccc(-c5oc6ccccc6c(=O)c5OCc5ccccc5)cc4)nn3)ccc12`
Marked response: 53

Exam item: Check the records and state Survival for `O=c1cc(-c2ccc(OCCOCCn3cc(CCCCOc4ccc5c(=O)cc(-c6ccccc6)oc5c4)nn3)cc2)oc2ccccc12`
Marked response: 42

Exam item: Check the records and state Survival for `COc1cccc(COc2c(-c3ccc(OCCOCCn4cc(COCCOc5ccc6c(=O)cc(-c7ccccc7)oc6c5)nn4)cc3)oc3ccccc3c2=O)c1`
Marked response: 71

Exam item: Check the records and state Survival for `O=c1[nH]c(-c2ccc(OCCCc3cn(CCOCCOc4ccc5c(=O)cc(-c6ccccc6)oc5c4)nn3)cc2)nc2ccccc12`
Marked response: 70

Exam item: Check the records and state Survival for `O=c1cc(-c2ccc(OCCCc3cn(CCOCCOc4cccc(-c5oc6ccccc6c(=O)c5OCc5ccccc5)c4)nn3)cc2)oc2cc(F)ccc12`
Marked response: 55

Exam item: Check the records and state Survival for `Cc1ccc2oc(-c3ccc(OCCCCc4cn(CCOCCOc5ccc(-c6cc(=O)c7cc(F)ccc7o6)cc5)nn4)cc3)cc(=O)c2c1`
Marked response: 38

Exam item: Check the records and state Survival for `Cc1ccc2oc(-c3ccc(OCCCCc4cn(CCOCCOCCOc5ccc(-c6cc(=O)c7cc(C)ccc7o6)cc5)nn4)cc3)cc(=O)c2c1`
Marked response: 50

Exam item: Check the records and state Survival for `O=c1cc(-c2ccccc2)oc2cc(OCCN(Cc3ccccc3)Cc3cn(CCOCCOCCOc4ccc(-c5cc(=O)c6cc(F)ccc6o5)cc4)nn3)ccc12`
Marked response: 50

Exam item: Check the records and state Survival for `O=c1cc(-c2ccc(OCCCc3cn(CCOCCOc4ccc(-c5cc(=O)c6ccccc6o5)cc4)nn3)cc2)oc2ccccc12`
Marked response: 51

Exam item: Check the records and state Survival for `O=c1cc(-c2ccc(OCCCc3cn(CCOCCOCCOc4ccc(-c5oc6ccccc6c(=O)c5OCc5ccccc5)cc4)nn3)cc2)oc2cc(F)ccc12`
Marked response: 53

Exam item: Check the records and state Survival for `O=c1cc(-c2ccccc2)oc2cc(OCCOCCn3cc(CN(CCOc4ccc5c(=O)cc(-c6ccccc6)oc5c4)Cc4ccccc4)nn3)ccc12`
Marked response: 54

---

targetOrTestSystem: Multidrug resistance-associated protein 1 (Homo sapiens)
assayNotes: Inhibition of MRP1 in human 2008/MRP1 cells assessed as potentiation of doxorubicin-induced cytotoxicity by measuring cell survival at 2 uM after 5 days by MTS assay relative to control
Format: cell-based
experimentalParameters: 120 h
Task for the reader: assign each of the following compounds its reported Survival.
Record the value in %, omitting the unit from your answer.

Exam item: Check the records and state Survival for `O=c1cc(-c2ccccc2)oc2cc(OCCOCc3cn(CCOCCOc4cccc(-c5oc6ccccc6c(=O)c5OCc5ccccc5)c4)nn3)ccc12`
Marked response: 77

Exam item: Check the records and state Survival for `C#CCCCOc1ccc(-c2nc3ccccc3c(=O)[nH]2)cc1`
Marked response: 86

Exam item: Check the records and state Survival for `COCOc1cc(OCc2ccccc2)c2c(=O)cc(-c3ccc(OCCCc4cn(CCOCCOc5ccc(-c6cc(=O)c7cc(F)ccc7o6)cc5)nn4)cc3)oc2c1`
Marked response: 63

Exam item: Check the records and state Survival for `O=c1cc(-c2ccc(OCCCc3cn(CCOCCOc4ccc5c(=O)cc(-c6ccccc6)oc5c4)nn3)cc2)oc2ccccc12`
Marked response: 39

Exam item: Check the records and state Survival for `C#CCCCCOc1ccc(-c2cc(=O)c3cc(C)ccc3o2)cc1`
Marked response: 88

Exam item: Check the records and state Survival for `Cc1ccc2oc(-c3ccc(OCCOCCOCCn4cc(CCCOc5ccc(-c6cc(=O)c7ccccc7o6)cc5)nn4)cc3)cc(=O)c2c1`
Marked response: 51

Exam item: Check the records and state Survival for `O=c1cc(-c2ccc(OCCCc3cn(CCOCCOc4cccc(-c5oc6ccccc6c(=O)c5OCc5ccccc5)c4)nn3)cc2)oc2ccc(F)cc12`
Marked response: 79

Exam item: Check the records and state Survival for `O=c1cc(-c2ccccc2)oc2cc(OCCOCCOCCn3cc(CN(Cc4ccccc4)Cc4cn(CCOCCOCCOc5ccc6c(=O)cc(-c7ccccc7)oc6c5)nn4)nn3)ccc12`
Marked response: 74

Exam item: Check the records and state Survival for `O=c1c(OCc2ccccc2)c(-c2ccc(OCCOCCn3cc(CN(Cc4ccccc4)Cc4cn(CCOCCOc5ccc(-c6oc7ccccc7c(=O)c6OCc6ccccc6)cc5)nn4)nn3)cc2)oc2ccccc12`
Marked response: 62

Exam item: Check the records and state Survival for `O=c1cc(-c2ccccc2)oc2cc(OCCn3cc(-c4ccc(-c5cn(CCOc6ccc7occ(-c8ccccc8)c(=O)c7c6)nn5)cc4)nn3)ccc12`
Marked response: 87

Exam item: Check the records and state Survival for `[N-]=[N+]=NCCOCCOc1ccc(-c2cc(=O)c3ccccc3o2)cc1`
Marked response: 78

Exam item: Check the records and state Survival for `O=c1cc(-c2ccccc2)oc2cc(OCCCCc3cn(CCOCCOCCOc4ccc5c(=O)cc(-c6ccccc6)oc5c4)nn3)ccc12`
Marked response: 61

Exam item: Check the records and state Survival for `O=c1[nH]c(-c2ccc(OCCCc3cn(CCOCCOc4ccc(-c5cc(=O)c6cc(F)ccc6o5)cc4)nn3)cc2)nc2ccccc12`
Marked response: 76

Exam item: Check the records and state Survival for `Cc1ccc(O)c(C(=O)/C=C/c2ccc(OCCCCc3cn(CCOCCOCCOc4ccc5c(=O)cc(-c6ccccc6)oc5c4)nn3)cc2)c1`
Marked response: 84

Exam item: Check the records and state Survival for `O=c1c(OCc2ccccc2)c(-c2ccc(OCCOCCn3cc(CN4CCN(Cc5cn(CCOCCOc6ccc(-c7oc8ccccc8c(=O)c7OCc7ccccc7)cc6)nn5)CC4)nn3)cc2)oc2ccccc12`
Marked response: 58

Exam item: Check the records and state Survival for `[N-]=[N+]=NCCOCCOCCOc1ccc(-c2oc3ccccc3c(=O)c2OCc2ccccc2)cc1`
Marked response: 74

Exam item: Check the records and state Survival for `O=c1cc(-c2ccc(OCCCc3cn(CCOCCOCCOc4ccc(-c5cc(=O)c6cc(F)ccc6o5)cc4)nn3)cc2)oc2ccccc12`
Marked response: 46

Exam item: Check the records and state Survival for `O=C(/C=C/c1ccc(OCCCCc2cn(CCOCCOCCOc3ccc(-c4cc(=O)c5ccccc5o4)cc3)nn2)cc1)c1ccccc1O`
Marked response: 65

Exam item: Check the records and state Survival for `CN(CCN(C)Cc1cn(CCOCCOc2cccc(-c3oc4ccccc4c(=O)c3OCc3ccccc3)c2)nn1)Cc1cn(CCOCCOc2cccc(-c3oc4ccccc4c(=O)c3OCc3ccccc3)c2)nn1`
Marked response: 83

Exam item: Check the records and state Survival for `O=c1cc(-c2ccc(OCCOCCOCCn3cc(-c4cccc(-c5cn(CCOCCOCCOc6ccc(-c7cc(=O)c8cc(F)ccc8o7)cc6)nn5)c4)nn3)cc2)oc2ccc(F)cc12`
Marked response: 72

Exam item: Check the records and state Survival for `Cc1ccc2oc(-c3ccc(OCCOCCOCCn4cc(CCCOc5ccc(-c6cc(=O)c7ccc(F)cc7o6)cc5)nn4)cc3)cc(=O)c2c1`
Marked response: 45

Exam item: Check the records and state Survival for `COCOc1cc(OCc2ccccc2)c2c(=O)cc(-c3ccc(OCCCc4cn(CCOCCOc5ccc6c(=O)cc(-c7ccccc7)oc6c5)nn4)cc3)oc2c1`
Marked response: 54

Exam item: Check the records and state Survival for `O=C(/C=C/c1ccc(OCCCCc2cn(CCOc3cccc4c(=O)cc(-c5ccccc5)oc34)nn2)cc1)c1ccc(F)cc1O`
Marked response: 73

Exam item: Check the records and state Survival for `O=Cc1ccc(OCCCCc2cn(CCOc3cccc4c(=O)cc(-c5ccccc5)oc34)nn2)cc1`
Marked response: 83

Exam item: Check the records and state Survival for `O=c1cc(-c2ccc(OCCOCCOCCn3cc(CCCOc4ccc(-c5cc(=O)c6ccc(F)cc6o5)cc4)nn3)cc2)oc2ccccc12`
Marked response: 44

Exam item: Check the records and state Survival for `O=Cc1ccc(OCCCCc2cn(CCOCCOCCOc3ccc(-c4cc(=O)c5cc(F)ccc5o4)cc3)nn2)cc1`
Marked response: 74

Exam item: Check the records and state Survival for `Cc1ccc(C(=O)/C=C/c2ccc(OCCCCc3cn(CCOc4cccc5c(=O)cc(-c6ccccc6)oc45)nn3)cc2)c(O)c1`
Marked response: 75

Exam item: Check the records and state Survival for `CCc1ccc(O)c(C(=O)/C=C/c2ccc(OCCCCc3cn(CCOCCOc4ccc(-c5cc(=O)c6cc(F)ccc6o5)cc4)nn3)cc2)c1`
Marked response: 80

Value source: ChEMBL document CHEMBL4257575
